assay: viability loss with induced miR-34 in A549 – imaging, A549 dox-inducible miR-34, nuclei and caspase counts, primary screen (AID 1347080); conditions: A549 miR-34 inducible, Hoechst nuclei count, 48 h; active compounds read low; cell number ratio, induced over uninduced; note: test concentration not given here
Each item that follows carries a reported fold change.
Reply with just the number.

CCCCC/C=C\C=C1\C(=O)CC[C@@H]1C/C=C\CCCC(=O)O ... 0.94
CCCc1oc(CCC(=O)O)c(C(=O)O)c1C ... 0.885
CCCCCCCCCCCCCCCC(=O)N[C@H](C)CO ... 0.916
O=C(CCCc1ccc(-c2ccccc2F)cc1)Nc1ccc(O)cc1 ... 1.05
COc1ccccc1N1CCN(CCN2C(=O)c3ccccc3C(C)(C)C2=O)CC1 ... 1.04

Note: attention shifts to another entry.
Q) Please report the recorded fold change for CCCCC[C@H](O)CC[C@@H]1[C@@H](C/C=C\CCCC(=O)O)[C@@H](O)C[C@H]1O .
A) 0.936
